Reference for the values: PubChem BioAssay (NCI)

test system: SK-OV-3 ovarian; assay: NCI tumour cell line growth inhibition, 48 h; in the data active = GI50 below about 0.43 µM; inactive = the rest
Pick from true for active, false for inactive when you respond.

// below: answered compounds
                                   compound  group_label
0  Cc1cc(C(=O)c2ccccc2)c(C)c2c1[nH]c1ccc(Cl)cc12         true
1  O=Nc1c(-c2c(O)[nH]c3ccc(Br)cc23)[nH]c2ccccc12        false
2  Cc1cc(Nc2cc(N)ncn2)c(=O)n2c1C(=O)NC21CCCCC1        false
3  COc1ccc(Cn2cc3c(c2-c2cc(OC)c(OC)c(OC)c2)CCc2cnoc2-3)cc1         true
4        CCCCCCCCCCCCCCCC1=NC(C)(C)CN1C(C)C        false
5  C=C1C(=O)O[C@H]2[C@H]1CC/C(COC(=O)NCc1ccc(Cn3c(=O)sn(-c4ccccc4)c3=O)cc1)=C\CC[C@@]1(C)O[C@@H]21        false
6  COc1cc(-c2csc(NC(=O)Nc3cc(Cl)cc(Cl)c3)n2)cc(OC)c1OC        false

Below: the item to evaluate.
Ask | // return assay outcome for CCSc1ccc(C2C(Br)C(=O)N2c2cc(OC)c(OC)c(OC)c2)cc1 (stereo not drawn)
Reply | true

----------
test system: A498 renal; test: NCI tumour cell line growth inhibition, 48 h
Measured TGI, listed per entry for reference.
Number in µM, nothing else.

Ask | Return reported TGI; argument: "CN(C)CC/C(=N\Nc1ccc(Cl)cc1Cl)c1ccccc1"
Reply | 30.1

----------
tested on: U251 CNS
I would appreciate it if you answered using one of these outcomes: t for active, f for inactive

Observe how each entry below is paired with its result.
In [3]: df
Out[3]:
                                   compound  group_label
0  N#CC1C=Cc2c(ccc3ccccc23)N1C(=O)c1ccccc1 (stereo not given)            t
1  C[C@@H]1COCCN1c1cc(C2(O)C[C@H]3CC[C@@H](C2)O3)c2cnn(-c3ccn[nH]3)c2n1 (stereo not given in full)            t
2  CCN(CC)C(=S)[S][Bi]([S]C(=S)N(CC)CC)[S]C(=S)N(CC)CC            f
3  Cc1ccc(Sc2cc3c(oc2=O)-c2ccccc2OC3O)cc1 (stereo not given)            f

Ask | Answer briefly: the call reported for "C=C1C(=O)O[C@H]2[C@H]1CC/C(COC(=O)NCc1ccc(Cn3c(=O)sn(-c4ccccc4)c3=O)cc1)=C\CC[C@@]1(C)O[C@@H]21" in this assay.
Reply | f

Ask | What classification did "CC(=O)c1cc(O)c2ccccc2c1O" end up with in this test?
Reply | f

Ask | What outcome does the record of this test show for "Cc1c(Cl)cccc1NC(=O)c1sc2nc3c(cc2c1N)CCCCC3" ?
Reply | t

Ask | Name the outcome recorded for "Cc1ccc([C@]2(C)CC[C@H](C)/C2=C\Br)c(O)c1" in the assay.
Reply | f

Ask | Record lookup: outcome of this test for "CC[C@H](C)C(=O)O[C@H]1C[C@H](O)C=C2C=C[C@H](C)[C@H](CC[C@@H](O)C[C@@H](O)CC(=O)O)[C@H]21" ?
Reply | f

Ask | Field: outcome | Entry: "Cn1cc(C2=C(N3CCOCC3)C(=O)NC2=O)c2ccccc21"
Reply | f

Ask | # fetch the recorded call for "CCCCCCCCCCCCCCCC1=NC(C)(C)CN1C(C)C" here
Reply | f

----------
tested on: SNB-19 CNS; assay: NCI tumour cell line growth inhibition, 48 h
MEASURED PROPERTY: TGI

In [3]: df
Out[3]:
                                   compound  experimental_target  measured_property  assay_value
0     O=C(NC(=S)Nc1cc(Cl)ccc1O)c1cccc(Br)c1           SNB-19 CNS                TGI     > 100 µM
1  COc1ccc(C2=NN=C3C(c4ccccc4)=Nc4ccccc4N3C2)cc1           SNB-19 CNS                TGI     > 100 µM
2  CN(C)C(=O)Oc1c(-c2ccccc2)c(=O)n2c3ccccc3n3c(=O)n(C)c(=O)c1c23           SNB-19 CNS                TGI     > 100 µM
3  COc1ccc(N2C(=O)C3c4[nH]c5ccccc5c4C4CCCCC4C3C2=O)cc1 (centres undefined)           SNB-19 CNS                TGI     > 100 µM
4                 Oc1ccc(N=Nc2ccccn2)c(O)c1           SNB-19 CNS                TGI     > 100 µM

Ask | Item under review: COC(=O)C(NC(=O)c1ccccc1)C(c1ccc(Cl)cc1)P(=O)(OC)OC (centres undefined) . Reported TGI?
Reply | > 100 µM

Ask | Sample CC(O)c1cc(C(=O)N[C@@H](C)Cn2ccc(-c3ccc(C#N)c(Cl)c3)n2)n[nH]1 (some centres undefined) — what was its TGI?
Reply | > 100 µM

----------
test system: DLD-1 colon; assay: NCI tumour cell line growth inhibition, 48 h
Each item that follows carries a reported TGI.

>>> df
                                   compound  measured_property  assay_value
0  O=NN(CCCl)C(=O)NC1CCC(CC2CCC(NC(=O)N(CCCl)N=O)CC2)CC1 (stereo not given)                TGI    > 62.4 µM
1  COc1ccc2c(c1)OC[C@@H]1c3cc(O)c(OCc4ccccc4)cc3O[C@H]21                TGI     > 100 µM
2  O=c1oc2ccccc2c(O)c1C(C/C(CCN1CCCC1)=N\Nc1ccccc1)c1ccccc1 (stereo not given)                TGI     > 100 µM
3  CC(=O)[CH-]C(C)=O.CC(=O)[CH-]C(C)=O.CC[O-].CC[O-].[Ti+4]                TGI     > 100 µM

Ask | Entry "O=C1NCCS(=O)(=O)N2CCC[C@@H]12" has what TGI?
Reply | > 100 µM

----------
Reported GI50 values for a set of compounds
test system: BT-549 breast; assay: NCI tumour cell line growth inhibition, 48 h

Some solved entries appear below for comparison.
                                 cpd_smiles  experimental_target  measured_property  assay_value
0  Cc1c(Cl)cccc1NC(=O)c1sc2nc3c(cc2c1N)CCCCC3        BT-549 breast               GI50     0.252 µM
1                  CC(=O)c1cc(O)c2ccccc2c1O        BT-549 breast               GI50      20.1 µM
2     CC(=O)c1nc2ccccc2n1CC(=O)c1cccc(Cl)c1        BT-549 breast               GI50      1.12 µM
3                          NC(=S)NN=C1CSSC1        BT-549 breast               GI50      3.37 µM

For the next question, use this compound.
Ask | # get_value(readout='GI50', item= "CS(=O)(=O)N(c1cc(-c2ccc3ncnc(Nc4cccc(Cl)c4)c3c2)cnc1Cl)S(C)(=O)=O" )
Reply | 0.318 µM

----------
test system: SF-295 CNS; experiment: NCI tumour cell line growth inhibition, 48 h
MEASURED PROPERTY: TGI

Use these answered entries as a reference point.
>>> print(df.to_string())
                                   molecule  assay_value
0  COC(=O)C1=C(C(=O)OC)SC2(S1)C(C(=O)OC)=C(C(=O)OC)Sc1c2ssc1=NC(C)(C)C      27.7 µM
1  Nc1ncc(-c2cccc(S(N)(=O)=O)c2)c2scc(-c3ccc(F)c(Cl)c3)c12      13.8 µM
2  CC(=O)[CH-]C(=O)c1ccccc1.CC(=O)[CH-]C(=O)c1ccccc1.CC[O-].O=C1c2ccccc2C(=O)c2c1ccc(O)c2[O-].[Ti+4]     > 100 µM

Ask | TGI lookup needed for "[N-]=[N+]=C(C(=O)N1CCCC1=O)S(=O)(=O)c1ccccc1" , thanks.
Reply | > 100 µM

Ask | Query (molecule): "Cc1c([N+](=O)[O-])oc2ccc3ccccc3c12" ; field requested: TGI
Reply | > 100 µM

----------
tested on: OVCAR-8 ovarian; assay: NCI tumour cell line growth inhibition, 48 h
Attribute: TGI

Check out these entries, answers already filled in.
                                   compound  assay_value
0  COc1ccc(Cn2cc3c(c2-c2cc(OC)c(OC)c(OC)c2)CCc2cnoc2-3)cc1     > 100 µM
1  Cc1sc2nc3n(c(=O)c2c1C)N=CN(c1ccc(F)cc1)C3     > 100 µM
2  C=C(c1ccccc1)c1ccccc1-c1cc(-c2ccccc2)cc(-c2ccccc2)n1     > 100 µM
3  C[C@@H](Nc1nc(Nc2ccc(F)c(Cl)c2)nc2ccccc12)C1CC1      20.5 µM
4  CS(=O)(=O)N(c1cc(-c2ccc3ncnc(Nc4cccc(Cl)c4)c3c2)cnc1Cl)S(C)(=O)=O     > 100 µM
5  Cc1cc(C(=O)c2ccccc2)c(C)c2c1[nH]c1ccc(Cl)cc12     > 100 µM
6  CCCC(=O)[O-].N.N.N.N.N.[Co+3].[O-][Cl+3]([O-])([O-])[O-]     > 100 µM
7  COc1ccc(N2C(=O)C3c4[nH]c5ccccc5c4C4CCCCC4C3C2=O)cc1 (centres undefined)      28.6 µM

Ask | Look at this compound and give its reported TGI. "C=C1C(=O)O[C@H]2[C@H]1CC/C(COC(=O)NCc1ccc(Cn3c(=O)sn(-c4ccccc4)c3=O)cc1)=C\CC[C@@]1(C)O[C@@H]21"
Reply | 8.55 µM

Ask | I am curious: what TGI value has been reported for CCN(c1cc(C#CCN2CCOCC2)cc(C(=O)NCc2c(C)cc(C)[nH]c2=O)c1C)C1CCC(N(C)CCOC)CC1 (centres undefined) ?
Reply | > 100 µM

Ask | Entry under review: CCc1cccc(C)c1NC(=O)CC1C(=O)Nc2ccccc2S1(=O)=O (centres undefined) . Reported TGI?
Reply | 54.1 µM

Ask | Look at this compound and give its reported TGI. "Cc1ccc([C@]2(C)CC[C@H](C)/C2=C\Br)c(O)c1"
Reply | 21.9 µM

Ask | State the recorded TGI for this entry: "O=C1NCCS(=O)(=O)N2CCC[C@@H]12"
Reply | > 100 µM

Ask | Which TGI is listed for "CC1(C)CCc2c(c(N=Nc3ccc(F)cc3)c3ccccc3c2O)O1" ?
Reply | > 100 µM

Ask | Requested field: TGI. Item: "C/C=N\N1C(=O)c2ccccc2C1=O"
Reply | > 100 µM

Ask | For the compound shown here, "C=CC(C)(C)C(=C)C(=O)Nc1ccccc1I" , give the reported TGI.
Reply | > 100 µM

Ask | Using the record for "CC(C)=CC(=O)Cc1nc2ccc([N+](=O)[O-])cc2[nH]c1=O" , report its TGI.
Reply | > 100 µM

Ask | Find the recorded TGI belonging to "C=CCn1c(-c2ccc([N+](=O)[O-])cc2)csc1=N" and report it.
Reply | > 100 µM

Ask | State the recorded TGI for this entry: "Cn1c(O)c(C=Nc2ccccc2Cl)c(=O)n(C)c1=O"
Reply | > 100 µM

Ask | Form field: reported TGI of "COc1ccc(C(=O)/C=C/c2cc(O)c(O)cc2F)c(OC)c1"
Reply | > 76.6 µM

Ask | Which TGI reading was recorded for the compound Cc1ccc([N+](=O)[O-])c2c(NCC(O)CO)ccnc12 (centres undefined) ?
Reply | > 100 µM

Ask | Requested field: TGI. Item: "O=[N+]([O-])c1cccc2nccc(NCCCO)c12"
Reply | 37.3 µM
